Counter-ions that a name gives are not always drawn.
Task for the reader: assign each of the following compounds its reported melting point.

Previously resolved entries follow.
CCCCN(CCCC)CC(O)CN1C(=O)C2C(C1=O)C1(C)C(=O)C2(C)C(c2ccccc2)=C1c1ccccc1 (stereo not drawn) (as salt: HCl) [1e] :: 192 to 196 °C
CC12C(=O)C(C)(C(c3ccccc3)=C1c1ccccc1)C1C(=O)N(CC(O)CN3CCCCC3)C(=O)C12 (stereo not drawn) (as salt: HCl) [1f] :: 170 to 171 °C

Data request: Could you share which melting point value was measured for CC12C(=O)C(C)(C(c3ccccc3)=C1c1ccccc1)C1C(=O)N(CCCl)C(=O)C12 (stereo not drawn) [1h] ?
Data returned: 190 to 191 °C
